Where do these numbers come from? They come from ChEMBL document CHEMBL1126694.

# Tested on: HCT-15
# procedure-summary: In vitro cytotoxicity against HCT-15 cell line.
# Type: functional
# test-context: Homo sapiens
Provide the reported GI50 of each item.

Past entries and their recorded results:
COc1cc2c(c(OC)c1OC)-c1ccc(SC)c(=O)cc1[C@@H](NCc1cccc([N+](=O)[O-])c1)CC2; < 0.01 µM
COc1cc2c(c(OC)c1OC)-c1ccc(SC)c(=O)cc1[C@@H](NC(=O)c1ccc(OC(C)=O)cc1)CC2; < 0.1 µM
COc1cc2c(c(OC)c1OC)-c1ccc(SC)c(=O)cc1[C@@H](NC(=O)c1cccc([N+](=O)[O-])c1)CC2; 0.0269 µM
COc1cc2c(c(OC)c1OC)-c1ccc(SC)c(=O)cc1[C@@H](NC(=O)c1ccc(F)cc1)CC2; 0.0427 µM

Here is another molecule to look at.
Supply GI50 measured with HCT-15 for "CCOC(=O)c1c(OC)cc(C(=O)N[C@H]2CCc3cc(OC)c(OC)c(OC)c3-c3ccc(SC)c(=O)cc32)cc1OC" .
0.447 µM
